Biological target: Angiotensin II receptor (Oryctolagus cuniculus)
Assay: Antagonism of angiotensin-II mediated contraction of rabbit aortic rings expressed as pA2 (in vitro)
measurement label: pA2

CCCCc1nn(CCCCC(=O)O)c(=O)n1Cc1ccc(-c2ccccc2-c2nn[nH]n2)cc1 : 8
CCCCc1nn(CC(=O)C23C[C@H]4C[C@@H](C2)C[C@@H](C3)C4)c(=O)n1Cc1ccc(-c2ccccc2-c2nn[nH]n2)cc1 : 8.1
CCCCc1nn(Cc2ccccc2)c(=O)n1Cc1ccc(-c2ccccc2-c2nn[nH]n2)cc1 : 8.1
CCCCc1nn(CC(O)c2cc(OC)ccc2OC)c(=O)n1Cc1ccc(-c2ccccc2-c2nn[nH]n2)cc1 (stereo not drawn) : 8.1
CCCCc1nn(CC(OCCC)c2ccccc2)c(=O)n1Cc1ccc(-c2ccccc2-c2nn[nH]n2)cc1 (stereo not drawn) : 8.1
CCCCc1nn(Cc2ccc3ccccc3c2)c(=O)n1Cc1ccc(-c2ccccc2-c2nn[nH]n2)cc1 : 6.5
CCCCCCn1nc(CCCC)n(Cc2ccc(-c3ccccc3-c3nn[nH]n3)cc2)c1=O : 8.9
CCCCc1nn(CCC(C)CC(C)(C)C)c(=O)n1Cc1ccc(-c2ccccc2-c2nn[nH]n2)cc1 (stereo not drawn) : 7.9
CCCCc1nn(C(C)(C)C(=O)c2ccccc2)c(=O)n1Cc1ccc(-c2ccccc2-c2nn[nH]n2)cc1 : 7.7
CCCCc1nn(C(C)CC)c(=O)n1Cc1ccc(-c2ccccc2-c2nn[nH]n2)cc1 (stereo not drawn) : 8.7
CCCCc1nn(CC(=O)OCC)c(=O)n1Cc1ccc(-c2ccccc2-c2nn[nH]n2)cc1 : 7.8
CCCCc1nn(CCCCCC(=O)O)c(=O)n1Cc1ccc(-c2ccccc2-c2nn[nH]n2)cc1 : 8.7
CCCCc1nn(CCCCCC(=O)OCC)c(=O)n1Cc1ccc(-c2ccccc2-c2nn[nH]n2)cc1 : 7.6
CCCCc1nn(CCc2ccccc2)c(=O)n1Cc1ccc(-c2ccccc2-c2nn[nH]n2)cc1 : 9.8
CCCCCCCCn1nc(CCCC)n(Cc2ccc(-c3ccccc3-c3nn[nH]n3)cc2)c1=O : 8.5
CCCCCn1nc(CCCC)n(Cc2ccc(-c3ccccc3-c3nn[nH]n3)cc2)c1=O : 9
CCCCc1nn(CC(=O)O)c(=O)n1Cc1ccc(-c2ccccc2-c2nn[nH]n2)cc1 : 7.8
CCCCc1nn(CCC2CCCCC2)c(=O)n1Cc1ccc(-c2ccccc2-c2nn[nH]n2)cc1 : 7.9
